Form field: Efficiency (Vmax/KM) (one value per entry).
molecular target: Klenow fragment lacking exonuclease activity (KF exo−) (Escherichia coli, UniProt P00582, D355A/E357A); construct: enzyme solution of the Klenow fragment lacking exonuclease activity (KF exo^−, Amersham USB); purchased Amersham USB; assay type: biochemical, E. coli; settings: template (N) = T, temp35N-2; 37° C.
Sequence (P00582 324-928 D355A/E357A): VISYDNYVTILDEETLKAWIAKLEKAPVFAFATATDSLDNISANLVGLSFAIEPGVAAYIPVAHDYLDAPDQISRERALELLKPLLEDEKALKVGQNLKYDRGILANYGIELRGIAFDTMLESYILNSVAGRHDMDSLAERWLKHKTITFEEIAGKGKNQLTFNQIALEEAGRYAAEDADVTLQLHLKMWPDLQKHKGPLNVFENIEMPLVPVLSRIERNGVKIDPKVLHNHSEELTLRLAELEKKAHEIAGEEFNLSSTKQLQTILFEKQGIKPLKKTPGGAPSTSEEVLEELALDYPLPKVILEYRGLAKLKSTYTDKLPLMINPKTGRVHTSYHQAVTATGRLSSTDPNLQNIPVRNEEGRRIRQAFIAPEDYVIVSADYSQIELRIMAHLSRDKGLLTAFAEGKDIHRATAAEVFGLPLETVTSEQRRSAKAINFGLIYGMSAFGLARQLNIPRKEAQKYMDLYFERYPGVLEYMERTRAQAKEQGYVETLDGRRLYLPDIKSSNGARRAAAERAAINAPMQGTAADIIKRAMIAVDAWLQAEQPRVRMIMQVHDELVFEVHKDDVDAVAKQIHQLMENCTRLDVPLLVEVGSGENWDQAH

Some molecules with recorded Efficiency (Vmax/KM):
1. Nc1nc2c(ncn2[C@H]2C[C@H](O)[C@@H](COP(=O)(O)OP(=O)(O)OP(=O)(O)O)O2)c(=O)[nH]1 [dGTP, reference compound]: 2.9 × 10^3 % min^−1M^−1
2. NP(=O)(O)OP(=O)(O)OP(=O)(O)OC[C@H]1O[C@@H](n2cnc3c(-c4cccs4)ccnc32)C[C@@H]1O: 3.5 × 10^3 % min^−1M^−1
3. Nc1ncnc2c1ncn2[C@H]1C[C@H](O)[C@@H](COP(=O)(O)OP(=O)(O)OP(N)(=O)O)O1: 2.5 × 10^5 % min^−1M^−1

Proceed to the following item.
Prompt: Recorded Efficiency (Vmax/KM) for O=P(O)(O)OP(=O)(O)OP(=O)(O)OC[C@H]1O[C@@H](n2cnc3c(-c4cccs4)ccnc32)C[C@@H]1O , please?
Completion: 8.7 × 10^4 % min^−1M^−1

Source: patent US8030478B2
